measured target: HLA-A*02:16
test: IEDB peptide-MHC binding, purified MHC/competitive/fluorescence; filed as Kd, often an IC50 or EC50 that approximates it; bounds were set here for any values at or beyond the usual limits of such assays
details: source organism: Human immunodeficiency virus type 1 (Z-84 ISOLATE)
pKd: −log10 of the molar value.
quantity name: pKd

Data request: Given the sequence YIKIFIMIV , what is its reported pKd?
Data returned: ≤ 4.70

====

measured target: HLA-B*58:01
test: IEDB peptide-MHC binding, purified MHC/direct/fluorescence; filed as Kd, often an IC50 or EC50 that approximates it; bounds were set here for any values at or beyond the usual limits of such assays
details: source organism: Influenza A virus (A/Hong Kong/507/97(H5N1))
quantity name: Kd (nM)
I only need the number, in nM, no unit after it.

Data request: If you can, please state the reported Kd value of GTSKIKMKW .
Data returned: 180
